Target: plasma purified human complement protein C3 (human) (UniProt P01024)
Sequence (P01024 23-667, chain 1 of 2): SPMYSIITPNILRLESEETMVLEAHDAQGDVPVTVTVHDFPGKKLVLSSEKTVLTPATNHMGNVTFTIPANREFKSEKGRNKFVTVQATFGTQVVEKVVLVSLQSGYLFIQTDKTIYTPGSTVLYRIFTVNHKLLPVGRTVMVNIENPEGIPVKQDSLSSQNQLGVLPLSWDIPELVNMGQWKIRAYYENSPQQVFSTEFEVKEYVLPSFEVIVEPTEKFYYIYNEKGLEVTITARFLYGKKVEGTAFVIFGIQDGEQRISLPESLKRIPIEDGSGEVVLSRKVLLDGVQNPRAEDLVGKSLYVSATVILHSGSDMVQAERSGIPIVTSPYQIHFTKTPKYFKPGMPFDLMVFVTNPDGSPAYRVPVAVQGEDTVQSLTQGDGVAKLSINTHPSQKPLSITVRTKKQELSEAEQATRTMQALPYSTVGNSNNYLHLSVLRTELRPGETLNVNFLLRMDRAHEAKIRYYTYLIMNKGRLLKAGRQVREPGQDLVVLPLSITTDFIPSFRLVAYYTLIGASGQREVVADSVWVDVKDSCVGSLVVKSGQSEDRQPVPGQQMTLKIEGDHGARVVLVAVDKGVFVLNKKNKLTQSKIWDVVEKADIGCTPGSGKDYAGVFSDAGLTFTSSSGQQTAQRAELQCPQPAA
Sequence (P01024 672-1663, chain 2 of 2): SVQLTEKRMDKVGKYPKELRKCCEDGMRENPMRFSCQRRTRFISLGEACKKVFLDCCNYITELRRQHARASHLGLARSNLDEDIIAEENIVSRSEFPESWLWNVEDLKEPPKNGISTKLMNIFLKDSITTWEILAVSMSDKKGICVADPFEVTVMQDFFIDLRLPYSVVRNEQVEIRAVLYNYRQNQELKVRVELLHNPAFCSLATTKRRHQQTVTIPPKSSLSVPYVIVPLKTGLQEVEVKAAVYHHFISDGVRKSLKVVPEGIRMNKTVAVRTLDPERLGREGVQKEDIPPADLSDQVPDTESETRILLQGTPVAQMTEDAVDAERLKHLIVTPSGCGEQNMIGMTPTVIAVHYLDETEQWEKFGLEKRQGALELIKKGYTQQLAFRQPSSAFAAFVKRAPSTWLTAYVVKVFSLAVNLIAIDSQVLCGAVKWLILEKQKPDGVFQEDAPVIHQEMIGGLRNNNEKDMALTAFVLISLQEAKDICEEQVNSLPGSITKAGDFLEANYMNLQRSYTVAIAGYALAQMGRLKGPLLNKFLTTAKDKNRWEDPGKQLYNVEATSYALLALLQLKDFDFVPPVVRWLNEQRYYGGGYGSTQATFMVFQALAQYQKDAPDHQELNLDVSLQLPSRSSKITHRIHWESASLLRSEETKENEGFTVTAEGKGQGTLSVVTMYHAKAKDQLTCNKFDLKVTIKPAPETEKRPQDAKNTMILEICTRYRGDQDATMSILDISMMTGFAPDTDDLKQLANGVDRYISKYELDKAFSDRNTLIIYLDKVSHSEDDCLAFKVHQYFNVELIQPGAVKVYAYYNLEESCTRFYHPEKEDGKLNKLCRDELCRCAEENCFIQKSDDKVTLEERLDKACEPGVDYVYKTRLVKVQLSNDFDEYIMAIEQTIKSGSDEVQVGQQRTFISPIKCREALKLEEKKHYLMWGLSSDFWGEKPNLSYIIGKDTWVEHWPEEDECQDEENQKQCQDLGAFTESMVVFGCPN
Experiment: cell-based or functional assay
ENDPOINT: EC50 hC3 cleavage (nM)

BINDER | ENDPOINT | REPORTED VALUE
MTSP-1 protease domain Q38H/I41S/D60bT/F60eS/Y60gW/F97D/ins97aA/T98P/F99L/C122S/G151H/Q175L/Q192E (enzyme) VVGGTDADEGEWPWQVSLHALGHGHSCGASLISPNWLVSAAHCYIDTRGSRWSDPTQWTAFLGLHDQSQRSAPGVQERRLKRIISHPFFNDDAPLDYDIALLELEKPAEYSSMVRPISLPDASHVFPAGKAIWVTGWGHTQYGGTHALILQKGEIRVINQTTCENLLPQLITPRMMCVGFLSGGVDSCEGDSGGPLSSVEADGRIFQAGVVSWGDGCAQRNKPGVYTRLPLFRDWIKENTGV | EC50 hC3 cleavage | 4.07
MTSP-1 protease domain F97V/ins97aH/T98R/F99L/C122S/Q175R/Q192G/D217S (enzyme) VVGGTDADEGEWPWQVSLHALGQGHICGASLISPNWLVSAAHCYIDDRGFRYSDPTQWTAFLGLHDQSQRSAPGVQERRLKRIISHPFFNDVHRLDYDIALLELEKPAEYSSMVRPISLPDASHVFPAGKAIWVTGWGHTQYGGTGALILQKGEIRVINQTTCENLLPQRITPRMMCVGFLSGGVDSCGGDSGGPLSSVEADGRIFQAGVVSWGSGCAQRNKPGVYTRLPLFRDWIKENTGV | EC50 hC3 cleavage | 905
MTSP-1 protease domain I41S/S90T/ins97aV/C122S/Q192N/D217V (enzyme) VVGGTDADEGEWPWQVSLHALGQGHSCGASLISPNWLVSAAHCYIDDRGFRYSDPTQWTAFLGLHDQSQRSAPGVQERRLKRIITHPFFNDFVTFDYDIALLELEKPAEYSSMVRPISLPDASHVFPAGKAIWVTGWGHTQYGGTGALILQKGEIRVINQTTCENLLPQQITPRMMCVGFLSGGVDSCNGDSGGPLSSVEADGRIFQAGVVSWGVGCAQRNKPGVYTRLPLFRDWIKENTGV | EC50 hC3 cleavage | 13.4

The reported measurements were obtained from patent US20240018502A1.
